study.system: native human MET on living cells (human, UniProt P08581 25-1390)
Sequence (P08581 25-1390): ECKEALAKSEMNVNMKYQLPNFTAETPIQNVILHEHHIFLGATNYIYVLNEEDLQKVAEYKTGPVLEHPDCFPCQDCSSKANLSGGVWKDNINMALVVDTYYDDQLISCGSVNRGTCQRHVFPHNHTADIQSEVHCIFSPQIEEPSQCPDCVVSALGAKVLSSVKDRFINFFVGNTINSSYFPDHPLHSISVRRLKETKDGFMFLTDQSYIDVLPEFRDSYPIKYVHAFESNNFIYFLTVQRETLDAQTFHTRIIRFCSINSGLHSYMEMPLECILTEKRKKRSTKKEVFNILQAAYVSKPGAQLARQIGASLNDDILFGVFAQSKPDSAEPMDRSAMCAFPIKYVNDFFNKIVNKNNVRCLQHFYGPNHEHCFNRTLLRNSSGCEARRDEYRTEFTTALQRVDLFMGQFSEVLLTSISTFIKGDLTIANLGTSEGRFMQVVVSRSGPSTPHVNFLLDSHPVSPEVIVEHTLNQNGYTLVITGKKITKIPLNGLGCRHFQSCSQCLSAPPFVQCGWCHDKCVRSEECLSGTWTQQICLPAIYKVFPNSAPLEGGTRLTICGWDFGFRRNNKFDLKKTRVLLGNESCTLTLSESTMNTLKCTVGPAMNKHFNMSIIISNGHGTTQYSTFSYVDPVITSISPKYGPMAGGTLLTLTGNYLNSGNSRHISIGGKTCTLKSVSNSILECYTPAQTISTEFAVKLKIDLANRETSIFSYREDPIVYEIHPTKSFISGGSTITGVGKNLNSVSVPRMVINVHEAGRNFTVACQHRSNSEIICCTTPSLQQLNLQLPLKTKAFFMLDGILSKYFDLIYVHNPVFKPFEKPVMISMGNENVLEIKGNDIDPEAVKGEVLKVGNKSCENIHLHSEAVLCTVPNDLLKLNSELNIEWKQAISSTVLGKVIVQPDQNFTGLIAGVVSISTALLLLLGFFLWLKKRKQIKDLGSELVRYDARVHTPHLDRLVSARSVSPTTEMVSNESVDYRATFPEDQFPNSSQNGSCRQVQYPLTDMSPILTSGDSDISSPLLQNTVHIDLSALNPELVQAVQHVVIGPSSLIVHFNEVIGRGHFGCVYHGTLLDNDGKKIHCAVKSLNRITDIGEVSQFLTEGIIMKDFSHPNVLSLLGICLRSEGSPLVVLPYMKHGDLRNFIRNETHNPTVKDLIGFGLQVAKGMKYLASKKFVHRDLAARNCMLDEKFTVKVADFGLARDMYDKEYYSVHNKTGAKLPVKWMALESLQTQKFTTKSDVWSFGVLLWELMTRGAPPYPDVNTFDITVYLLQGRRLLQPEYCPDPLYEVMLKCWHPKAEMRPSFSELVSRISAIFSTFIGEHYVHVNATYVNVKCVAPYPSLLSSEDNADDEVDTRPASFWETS
test.description: cell-based or functional assay
assay.metric: protection from staurosporine, viability EC50, MCF10A cells

binder: 76H10 chimeric llama-human IgG1 mAb (antibody, V domains shown, llama VH on human IgG1 CH1-CH2-CH3, llama VL on human lambda CL) VH: QLQLVESGGGLVQPGGSLRVSCTASGFTFNTYYMTWVRQAPGKGLEWVSDINSGGGTYYADSVKGRFTISRDNAKNTLYLQMNSLKPEDTALYYCVRVRIWPVGYDYWGQGTQVTVSS VL: QAVVTQEPSLSVSPGGTVTLTCGLSSGSVTTSNYPGWFQQTPGQAPRTLIYNTNNRHSGVPSRFSGSISGNKAALTITGAQPEDEADYYCSLYTGSYTTVFGGGTHLTVL
reported: > 32 nM
--
binder: 74C8 chimeric llama-human IgG1 mAb (antibody, V domains shown, llama VH on human IgG1 CH1-CH2-CH3, llama VL on human lambda CL) VH: EVQLVESGGGLVQPGGSLRLSCAASGFTFRNYHMSWVRQVPGKGFEWISDINSAGGSTYYADSVKGRFTISRDNAKNTLYLEMNSLKPEDTALYYCARVNVWGVNYWGKGTLVSVSS VL: QTVVTQEPSLSVSPGGTVTLTCGLSSGSVTTSNYPGWFQQTPGQAPRTLIYNTNSRHSGVPSRFSGSISGNKAALTITGAQPEDEADYYCSLYPGSYTNVFGGGTHLTVL
reported: > 32 nM
--
binder: 71C3 chimeric llama-human IgG1 mAb (antibody, V domains shown, llama VH on human IgG1 CH1-CH2-CH3, llama VL on human lambda CL) VH: QLQLVESGGGLVQPGGSLRLSCAASGFTFSSHAMSWVRQAPGKGLEWVSAINSGGGSTSYADSVKGRFTISRDNAKNTLYLQMNSLKPEDTAVYYCAKELRFDLARYTDYEAWDYWGQGTQVTVSS VL: SYELTQPSALSVTLGQTAKITCQGGSLGSSYAHWYQQKPGQAPVLVIYDDDSRPSGIPERFSGSSSGGTATLTISGAQAEDEGDYYCQSADSSGNAAVFGGGTHLTVL
reported: 31.9 nM
